Experiment: ATG_SREBP_CIS: Attagene CIS-FACTORIAL HepG2 Assay for human Sterol Regulatory Element Binding (SREBP) (AID 2282962)
Details: HepG2 Attagene cis-factorial SREBP reporter, mRNA; actives raise or lower the signal
Calls of active or inactive are those of the source. How the source made its calls: active means hit-call score of the fitted dose curve at least 0.9, where 1 is the maximum; inactive means score below 0.9.
Can you answer with just one of these options? active, inactive

Solved entries (count: 5):
Cc1cc(N=Nc2ccccc2C)ccc1N
inactive
[Cl-].[Cl-].[Hg+2]
active
Nc1ccc(N=Nc2ccccc2)cc1
inactive
CC(C)(C)OOC(C)(C)CCC(C)(C)OOC(C)(C)C
active
CCCSC(=O)N(CCC)CCC
inactive

Q: So what was the verdict on Clc1ccccc1Cl in this test?
Ans: inactive

Q: So what was the verdict on c1ccc(C2CO2)cc1 (configuration not stated) in this test?
Ans: inactive

Q: So what was the verdict on COP(=S)(OC)SCN1C(=O)c2ccccc2C1=O in this test?
Ans: inactive

Q: So what was the verdict on CCCCCCCCOC(=O)c1ccc(C(=O)OCCCCCCCC)c(C(=O)OCCCCCCCC)c1 in this test?
Ans: inactive

Q: So what was the verdict on Nc1ccc(Oc2ccc(N)cc2)cc1 in this test?
Ans: inactive

Q: So what was the verdict on CCOC(=O)[C@]1(c2ccccc2)Oc2ccccc2[C@@H]1N in this test?
Ans: active

Q: So what was the verdict on Nc1ccc(Cl)cc1N in this test?
Ans: inactive
